# Tested on: P. yoelii (Kenya Strain) blood stage infection in mice
# assay: 4-day Peters test against murine malaria
# Assay type: in vivo
# condition.context: P. yoelii in mice, oral gavage in PEG400 on Days 1-4; prodrugs dosed on molar equivalency to parent drug
Task for the reader: assign each of the following compounds its reported 4-day Peters Test Results ED90.
Output spec: scalar in mg/kg/day, unitless text.

Problem: Name the reported 4-day Peters Test Results ED90 value associated with the compound CCOC(=O)OCOc1c(-c2ccc(-c3ccc(OC(F)(F)F)cc3)cc2)c(C)nc2cc(OC)ccc12 [ELQ-695]
Result: 0.3

Problem: Name the reported 4-day Peters Test Results ED90 value associated with the compound COc1cc2[nH]c(C)c(-c3ccc(-c4ccc(OC(F)(F)F)cc4)cc3)c(=O)c2cc1Cl [ELQ-596]
Result: 0.021

Problem: Name the reported 4-day Peters Test Results ED90 value associated with the compound CCOC(=O)OCOc1c(-c2ccc(Oc3ccc(OC(F)(F)F)cc3)cc2)c(C)nc2cc(OC)c(Cl)cc12 [ELQ-331, reference compound]
Result: 0.05

Problem: Name the reported 4-day Peters Test Results ED90 value associated with the compound COc1cc2[nH]c(C)c(-c3ccc(Oc4ccc(OC(F)(F)F)cc4)cc3)c(=O)c2cc1Cl [ELQ-300, reference compound]
Result: 0.06

Problem: Name the reported 4-day Peters Test Results ED90 value associated with the compound CCOC(=O)OCOc1c(-c2ccc(-c3ccc(OC(F)(F)F)cc3)cc2)c(C)nc2cc(OC)c(Cl)cc12 [ELQ-598]
Result: 0.01

###

# System: P. falciparum D1 clone (ELQ-300 resistant)
# assay: microbe, parasite or virus in culture
# Format: cell-based
# condition.context: Plasmodium falciparum, 72 h, read-out: P. falciparum IC50 values, nM D1
observable: IC50 (nM)
Output spec: scalar in nM, unitless text.

Problem: Short answer please: IC50, P. falciparum D1 clone (ELQ-300 resistant), entry COc1ccc2c(=O)c(-c3ccc(-c4cc(F)c(OC)c(F)c4)cc3)c(C)[nH]c2c1
Result: 11.6

Problem: Short answer please: IC50, P. falciparum D1 clone (ELQ-300 resistant), entry COc1ccc2c(=O)c(-c3ccc(-c4cc(F)c(OC(F)(F)F)c(F)c4)cc3)c(C)[nH]c2c1
Result: 6.18

Problem: Short answer please: IC50, P. falciparum D1 clone (ELQ-300 resistant), entry COc1ccc2c(=O)c(-c3ccc(-c4cccc(OC(F)(F)F)c4)cc3)c(C)[nH]c2c1
Result: 10.6

Problem: Short answer please: IC50, P. falciparum D1 clone (ELQ-300 resistant), entry COc1cc2[nH]c(C)c(-c3ccc(Oc4ccc(OC(F)(F)F)cc4)cc3)c(=O)c2cc1Cl [ELQ-300, reference compound]
Result: 168

Problem: Short answer please: IC50, P. falciparum D1 clone (ELQ-300 resistant), entry O=C1C(O)=C([C@H]2CC[C@H](c3ccc(Cl)cc3)CC2)C(=O)c2ccccc21 [Atovaquone, reference compound]
Result: 0.4

Problem: Short answer please: IC50, P. falciparum D1 clone (ELQ-300 resistant), entry COc1ccc2c(=O)c(-c3ccc(-c4ccc(C(F)(F)F)cc4OC)cc3)c(C)[nH]c2c1
Result: 1.91

Problem: Short answer please: IC50, P. falciparum D1 clone (ELQ-300 resistant), entry COc1ccc2c(=O)c(-c3ccc(-c4cc(C(F)(F)F)cc(C(F)(F)F)c4)cc3)c(C)[nH]c2c1
Result: 5.56

###

# Tested on: P. falciparum D1 clone (ELQ-300 resistant)
# assay: microbe, parasite or virus in culture
# Type: cell-based
# condition.context: Plasmodium falciparum, 72 h, read-out: P. falciparum IC50 values, nM D1
Task for the reader: assign each of the following molecules its reported IC50.
Output spec: scalar in nM, unitless text.

Problem: Name the reported IC50 value associated with the molecule COc1ccc2c(=O)c(-c3ccc(-c4ccc(OC(F)(F)F)cc4)cc3)c(C)[nH]c2c1
Result: 3.5

Problem: Name the reported IC50 value associated with the molecule COc1ccc2c(=O)c(-c3ccc(-c4cccc(C(F)(F)F)c4)cc3)c(C)[nH]c2c1
Result: 3.82

Problem: Name the reported IC50 value associated with the molecule COc1ccc2c(=O)c(-c3ccc(-c4ccc(F)cc4OC)cc3)c(C)[nH]c2c1
Result: 2.06

Problem: Name the reported IC50 value associated with the molecule CCOC(=O)OCOc1c(-c2ccc(-c3ccc(OC(F)(F)F)cc3)cc2)c(C)nc2cc(OC)ccc12
Result: 8.4

###

# assay: HepG2 cytotoxicity, TiterGlo ATP luminescence, galactose medium
# Type: cell-based, human
# condition.context: human; HepG2, galactose medium, 48 hours; read-out: EC50 (cytotoxicity)
observable: EC50 at 48 h

Problem: Name the reported EC50 at 48 h value associated with the compound COc1cc2[nH]c(C)c(-c3ccc(-c4ccc(OC(F)(F)F)cc4)cc3)c(=O)c2cc1Cl [ELQ-596]
Result: > 10 µM

###

# Test system: P. yoelii (Kenya Strain) blood stage infection in mice
# assay: 4-day Peters test against murine malaria
# Assay type: in vivo
# condition.context: P. yoelii in mice, oral gavage in PEG400 on Days 1-4; prodrugs dosed on molar equivalency to parent drug
Criterion: 4-day Peters Test Results NRD (non-recrudescence dose) strictly under 1 mg/kg/day. Met: 1. Not met: -1.

Problem: A record lists COc1cc2[nH]c(C)c(-c3ccc(-c4ccc(OC(F)(F)F)cc4)cc3)c(=O)c2cc1Cl . Is its 4-day Peters Test Results NRD (non-recrudescence dose) below 1 mg/kg/day?
Result: 1

Problem: A record lists CCOC(=O)OCOc1c(-c2ccc(-c3ccc(OC(F)(F)F)cc3)cc2)c(C)nc2cc(OC)c(Cl)cc12 . Is its 4-day Peters Test Results NRD (non-recrudescence dose) below 1 mg/kg/day?
Result: 1

Problem: A record lists O=C1C(O)=C([C@H]2CC[C@H](c3ccc(Cl)cc3)CC2)C(=O)c2ccccc21 [Atovaquone, reference compound] . Is its 4-day Peters Test Results NRD (non-recrudescence dose) below 1 mg/kg/day?
Result: -1

Problem: A record lists CCN(CC)CCCC(C)Nc1ccnc2cc(Cl)ccc12 (stereo not shown) [CQ, chloroquine, reference compound] . Is its 4-day Peters Test Results NRD (non-recrudescence dose) below 1 mg/kg/day?
Result: -1

Problem: A record lists CCOC(=O)OCOc1c(-c2ccc(-c3ccc(OC(F)(F)F)cc3)cc2)c(C)nc2cc(OC)ccc12 . Is its 4-day Peters Test Results NRD (non-recrudescence dose) below 1 mg/kg/day?
Result: -1

###

# system.under.test: P. falciparum cytochrome bc1 complex (Plasmodium falciparum, UniProt Q02768)
# Construct: endogenous in cells
# Sequence (Q02768 whole entry, one chain of several): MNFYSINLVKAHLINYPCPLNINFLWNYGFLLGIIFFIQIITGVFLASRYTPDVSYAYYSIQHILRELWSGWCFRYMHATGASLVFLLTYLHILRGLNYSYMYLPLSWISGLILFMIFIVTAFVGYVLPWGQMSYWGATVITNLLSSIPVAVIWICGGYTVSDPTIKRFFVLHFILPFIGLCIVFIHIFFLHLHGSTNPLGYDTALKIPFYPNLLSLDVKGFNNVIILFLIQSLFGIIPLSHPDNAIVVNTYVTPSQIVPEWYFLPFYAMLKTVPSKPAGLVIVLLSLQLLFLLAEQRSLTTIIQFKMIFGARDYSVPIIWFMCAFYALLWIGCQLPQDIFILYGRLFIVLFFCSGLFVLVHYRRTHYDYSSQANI
# assay: biochemical
# condition.context: cytochrome bc1 activity from P. falciparum mitochondria
observable: pIC50
# log scale: pIC50 equals minus log10 of the concentration in mol/L

Problem: Name the reported pIC50 value associated with the compound COc1cc2[nH]c(C)c(-c3ccc(-c4ccc(OC(F)(F)F)cc4)cc3)c(=O)c2cc1Cl [ELQ-596]
Result: 10.00

###

# assay: Murine microsomal metabolic stability
# condition.context: mouse, pooled liver microsomes, pH 7.4
observable: CLint scaled at 1 μM (mL/min/kg)
Output spec: scalar in mL/min/kg, unitless text.

Problem: Name the reported CLint scaled at 1 μM value associated with the molecule COc1cc2[nH]c(C)c(-c3ccc(-c4ccc(OC(F)(F)F)cc4)cc3)c(=O)c2cc1Cl
Result: 1.15

###

# Tested on: HepG2 cells
# assay: HepG2 cytotoxicity, TiterGlo ATP luminescence, galactose medium
# Assay type: cell-based, human
# condition.context: medium with galactose instead of glucose
observable: EC50

Problem: Name the reported EC50 value associated with the molecule COc1cc2[nH]c(C)c(-c3ccc(-c4ccc(OC(F)(F)F)cc4)cc3)c(=O)c2cc1Cl
Result: > 10000 nM

###

# System: P. falciparum Dd2 strain (multidrug resistant)
# assay: microbe, parasite or virus in culture
# Type: cell-based, Plasmodium falciparum
# condition.context: Plasmodium falciparum, DD2, 72 h, read-out: P. falciparum IC50 values, nM Dd2
Criterion: IC50 strictly under 5 nM. Met: met. Not met: not met.

Problem: A record lists COc1ccc2c(=O)c(-c3ccc(-c4cc(C(F)(F)F)cc(C(F)(F)F)c4)cc3)c(C)[nH]c2c1 . Is its IC50 below 5 nM?
Result: met

Problem: A record lists O=C1C(O)=C([C@H]2CC[C@H](c3ccc(Cl)cc3)CC2)C(=O)c2ccccc21 [Atovaquone, reference compound] . Is its IC50 below 5 nM?
Result: met

Problem: A record lists COc1ccc2c(=O)c(-c3ccc(-c4cccc(C(F)(F)F)c4)cc3)c(C)[nH]c2c1 . Is its IC50 below 5 nM?
Result: not met

Problem: A record lists COc1ccc2c(=O)c(-c3ccc(-c4ccc(OC(F)(F)F)cc4)cc3)c(C)[nH]c2c1 . Is its IC50 below 5 nM?
Result: not met

Problem: A record lists COc1ccc2c(=O)c(-c3ccc(-c4ccc(F)cc4OC)cc3)c(C)[nH]c2c1 . Is its IC50 below 5 nM?
Result: met

Problem: A record lists COc1ccc2c(=O)c(-c3ccc(-c4cccc(OC(F)(F)F)c4)cc3)c(C)[nH]c2c1 . Is its IC50 below 5 nM?
Result: not met

Problem: A record lists COc1ccc2c(=O)c(-c3ccc(-c4cc(F)c(OC)c(F)c4)cc3)c(C)[nH]c2c1 . Is its IC50 below 5 nM?
Result: not met

Problem: A record lists COc1ccc2c(=O)c(-c3ccc(-c4cc(F)c(OC(F)(F)F)c(F)c4)cc3)c(C)[nH]c2c1 . Is its IC50 below 5 nM?
Result: not met

Problem: A record lists COc1cc2[nH]c(C)c(-c3ccc(-c4ccc(OC(F)(F)F)cc4)cc3)c(=O)c2cc1Cl . Is its IC50 below 5 nM?
Result: met

Problem: A record lists COc1ccc2c(=O)c(-c3ccc(-c4ccc(C(F)(F)F)cc4OC)cc3)c(C)[nH]c2c1 . Is its IC50 below 5 nM?
Result: met

Problem: A record lists CCOC(=O)OCOc1c(-c2ccc(-c3ccc(OC(F)(F)F)cc3)cc2)c(C)nc2cc(OC)ccc12 . Is its IC50 below 5 nM?
Result: not met
